All values here come from patent US9289478B2.

# PROTOCOL SUMMARY: HPLC-assay for in-use stability after reconstitution with 4.2% sodium hydrogen carbonate solution (Example 2, peptides SEQ ID NO 1-10)
# Format: physicochemical
# CONDITION DESCRIPTION: +mannitol/lutrol; 1 h after reconstitution

>  <RESIDUE CODES>
SQDDIKGIQKLYGKRS (listed as Homo sapiens) [MMP-001, Matrix metalloproteinase 7 tumour-associated peptide]

>  <in-use stability, peptide by HPLC-assay / %>
99.5

$$$$
>  <RESIDUE CODES>
YVDPVITSI (listed as Homo sapiens) [MET-001, c-met proto-oncogene tumour-associated peptide]

>  <in-use stability, peptide by HPLC-assay / %>
99.8

$$$$
>  <RESIDUE CODES>
SVASTITGV (listed as Homo sapiens) [ADF-001, Adipophilin tumour-associated peptide]

>  <in-use stability, peptide by HPLC-assay / %>
99.6

$$$$
>  <RESIDUE CODES>
ALADGVQKV (listed as Homo sapiens) [APO-001, Apolipoprotein L1 tumour-associated peptide]

>  <in-use stability, peptide by HPLC-assay / %>
99.8

$$$$
>  <RESIDUE CODES>
ALFDGDPHL (listed as Homo sapiens) [K67-001, KIAA0367 tumour-associated peptide]

>  <in-use stability, peptide by HPLC-assay / %>
99.8

$$$$
>  <RESIDUE CODES>
LAALPHSCL (listed as Homo sapiens) [RGS-001, RGS-5 tumour-associated peptide]

>  <in-use stability, peptide by HPLC-assay / %>
97.9

$$$$
>  <RESIDUE CODES>
LLGATCMFV (listed as Homo sapiens) [CCN-001, Cyclin D1 tumour-associated peptide]

>  <in-use stability, peptide by HPLC-assay / %>
95.6

$$$$
>  <RESIDUE CODES>
SVFAGVVGV (listed as Homo sapiens) [GUC-001, GUCY1A3 tumour-associated peptide]

>  <in-use stability, peptide by HPLC-assay / %>
99.7

$$$$
>  <RESIDUE CODES>
VMAGDIYSV (listed as Homo sapiens) [ADF-002, Adipophilin tumour-associated peptide]

>  <in-use stability, peptide by HPLC-assay / %>
99.9

$$$$
